Each recorded value in this set is attributed to patent US20260049134A1.

The binders listed here are annotated with their ELISA Absorbance (405 nm-570 nm).
Target: T1, APP
T1 construct: His-tagged; coated protein in the ELISA; also called APP-His (Acro Biosystems)
Assay: ELISA on coated APP-His, 150 ng IgG1; None 0.092
Note: the reply should be a number with no unit written.

Consider the following illustrative entries.
HW-1 chimeric rabbit-human IgG1 LA/LA/PG (antibody, V domains shown, Fc-silenced (L234A/L235A/P329G) IgG1, lambda; Alexa Fluor 647-labeled in single-step flow cytometry; Prototype of cluster C-1) VH: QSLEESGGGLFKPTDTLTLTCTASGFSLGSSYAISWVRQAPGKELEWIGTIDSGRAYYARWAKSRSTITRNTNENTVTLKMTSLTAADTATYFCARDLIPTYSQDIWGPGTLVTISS VL: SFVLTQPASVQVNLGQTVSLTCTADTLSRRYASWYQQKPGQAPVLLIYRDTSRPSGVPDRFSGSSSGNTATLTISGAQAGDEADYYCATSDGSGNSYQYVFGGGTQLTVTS :: 0.071
HW-70 chimeric rabbit-human IgG1 LA/LA/PG (antibody, V domains shown, Fc-silenced (L234A/L235A/P329G) IgG1, lambda; Alexa Fluor 647-labeled in single-step flow cytometry; Cluster C-1) VH: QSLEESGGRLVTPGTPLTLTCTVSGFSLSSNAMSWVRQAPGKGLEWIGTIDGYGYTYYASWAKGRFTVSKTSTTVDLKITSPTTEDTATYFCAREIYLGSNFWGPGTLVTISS VL: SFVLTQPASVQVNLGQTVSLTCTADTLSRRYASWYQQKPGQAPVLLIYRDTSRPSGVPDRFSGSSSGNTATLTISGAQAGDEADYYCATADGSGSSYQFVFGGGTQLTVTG :: 0.089
HW-42 chimeric rabbit-human IgG1 LA/LA/PG (antibody, V domains shown, Fc-silenced (L234A/L235A/P329G) IgG1, lambda; Alexa Fluor 647-labeled in single-step flow cytometry; Cluster C-1) VH: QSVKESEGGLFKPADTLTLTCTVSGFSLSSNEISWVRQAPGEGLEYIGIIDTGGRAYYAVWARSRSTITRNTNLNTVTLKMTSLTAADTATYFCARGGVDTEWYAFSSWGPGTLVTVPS VL: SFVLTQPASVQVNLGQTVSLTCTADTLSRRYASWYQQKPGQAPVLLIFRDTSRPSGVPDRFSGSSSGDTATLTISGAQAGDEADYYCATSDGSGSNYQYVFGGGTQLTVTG :: 0.087
HW-97 chimeric rabbit-human IgG1 LA/LA/PG (antibody, V domains shown, Fc-silenced (L234A/L235A/P329G) IgG1, lambda; Alexa Fluor 647-labeled in single-step flow cytometry; Prototype of cluster C-97) VH: QKQLVESGGRLVTPGTPLTLTCTVTGIDLSSHGMSWVRQAPGKGLEWIGVIYPSGSTWYASWARGRFTISKTSTTVDLKMTSLTTEDTATHFCARGDVGGADNNIWGPGTLVTVSS VL: SFVLTQPASVQVDLGQTVSLTCTAETLSRSYASWYQQKPGQAPVLLIYRDTSRPSGVPDRFSGSSSGNTATLTISGAQAGDEADYYCATSDGSGSSYQYVFGGGTQLTVTG :: 0.067
HW-56 chimeric rabbit-human IgG1 LA/LA/PG (antibody, V domains shown, Fc-silenced (L234A/L235A/P329G) IgG1, kappa; Alexa Fluor 647-labeled in single-step flow cytometry; Cluster C-45) VH: QSVKESEGGLFKPTDTLTLTCTASGFTVSTNAVTWVRQAPGNGLEYIGTIGRSGSAYFASWAKRRSTLTRDINLNTVTLKMTSLTAADTATYFCVRGSPGYRTAISIWGPGTLVTISS VL: AVMTQTPSSTSAAVEGTVTINCQASQSISNRLSWFQQKPGQPPKLLIYQASTLASGVPSRFKGSGSGTEFTLTISGVQREDAATYYCLGSYSSSDASFGGGTKLEIKR :: 0.112

Note: attention shifts to another entry.
stdin: Tell me the measured ELISA Absorbance (405 nm-570 nm) of TH9-0022 (antibody, human IgG1, kappa, L234A L235A, V domains shown, also called TH9-022; negative control) VH: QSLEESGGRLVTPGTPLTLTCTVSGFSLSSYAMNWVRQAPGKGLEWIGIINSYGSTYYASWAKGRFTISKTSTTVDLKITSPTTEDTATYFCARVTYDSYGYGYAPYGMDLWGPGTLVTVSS VL: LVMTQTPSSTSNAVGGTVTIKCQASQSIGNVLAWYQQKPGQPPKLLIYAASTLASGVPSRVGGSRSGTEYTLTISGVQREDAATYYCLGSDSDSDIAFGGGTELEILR , please.
stdout: 0.082
